The measurements presented in this section are drawn from ChEMBL document CHEMBL1129933.

- experimental-details: Inhibition of RNA synthesis
- Type: functional
What pIC50 was measured for each of the following?
// returns pIC50 (minus log10 of molar concentration), number only

The measured pIC50 associated with N[C@H](Cc1c([Se][Se]c2[nH]c3ccccc3c2C[C@H](N)C(=O)NCc2ccccc2)[nH]c2ccccc12)C(=O)NCc1ccccc1 (stereo in doubt; 33) reads 6.46

So, NC(Cc1c(SSc2[nH]c3ccccc3c2CC(N)C(=O)NCc2ccccc2)[nH]c2ccccc12)C(=O)NCc1ccccc1 (configuration not stated) ? Its pIC50 was 5.70

###

Could you please report measured pKi for the items listed next?
- system-tested: Epidermal growth factor receptor (Homo sapiens)
- experimental-details: Inhibition of epidermal growth factor receptor (EGFr) using peptide substrate
Units for pKi: none; it is -log10 of a concentration expressed in mol/L.

The compound listed as CNC(=O)c1c([Se][Se]c2c(C(=O)NC)c3ccccc3n2C)n(C)c2ccccc12 has a reported pKi of 5.41

// recorded pKi for CNC(=O)c1c(SSc2c(C(=O)NC)c3ccccc3n2C)n(C)c2ccccc12 : 5.41

The recorded pKi for NC(Cc1c(SSc2[nH]c3ccccc3c2CC(N)C(=O)NCc2ccccc2)[nH]c2ccccc12)C(=O)NCc1ccccc1 (centres undefined) is 4.67

pKi recorded for this compound, N[C@H](Cc1c([Se][Se]c2[nH]c3ccccc3c2C[C@H](N)C(=O)NCc2ccccc2)[nH]c2ccccc12)C(=O)NCc1ccccc1 (stereo in doubt; 34) , is 5.25

###

- experimental-details: Inhibition of Src tyrosine kinase using ATP substrate
endpoint: pKi
Scale note: pKi = -log10(concentration in M).

The molecule listed as CNC(=O)c1c(SSc2c(C(=O)NC)c3ccccc3n2C)n(C)c2ccccc12 has a reported pKi of 5.10

The molecule identified as CNC(=O)c1c([Se][Se]c2c(C(=O)NC)c3ccccc3n2C)n(C)c2ccccc12 registered its pKi at 6.10

###

- system-tested: Epidermal growth factor receptor (Mus musculus)
- experimental-details: Inhibition of epidermal growth factor receptor (EGFr) autophosphorylation
endpoint: pIC50
// pIC50 here means minus log10 of the molar concentration (mol/L)

Measured pIC50 (Epidermal growth factor receptor (Mus musculus)), entry N[C@H](Cc1c([Se][Se]c2[nH]c3ccccc3c2C[C@H](N)C(=O)NCc2ccccc2)[nH]c2ccccc12)C(=O)NCc1ccccc1 (stereo in doubt; 33) : 5.38

###

- system-tested: Epidermal growth factor receptor (Homo sapiens, UniProt P00533)
- Sequence (P00533 whole entry): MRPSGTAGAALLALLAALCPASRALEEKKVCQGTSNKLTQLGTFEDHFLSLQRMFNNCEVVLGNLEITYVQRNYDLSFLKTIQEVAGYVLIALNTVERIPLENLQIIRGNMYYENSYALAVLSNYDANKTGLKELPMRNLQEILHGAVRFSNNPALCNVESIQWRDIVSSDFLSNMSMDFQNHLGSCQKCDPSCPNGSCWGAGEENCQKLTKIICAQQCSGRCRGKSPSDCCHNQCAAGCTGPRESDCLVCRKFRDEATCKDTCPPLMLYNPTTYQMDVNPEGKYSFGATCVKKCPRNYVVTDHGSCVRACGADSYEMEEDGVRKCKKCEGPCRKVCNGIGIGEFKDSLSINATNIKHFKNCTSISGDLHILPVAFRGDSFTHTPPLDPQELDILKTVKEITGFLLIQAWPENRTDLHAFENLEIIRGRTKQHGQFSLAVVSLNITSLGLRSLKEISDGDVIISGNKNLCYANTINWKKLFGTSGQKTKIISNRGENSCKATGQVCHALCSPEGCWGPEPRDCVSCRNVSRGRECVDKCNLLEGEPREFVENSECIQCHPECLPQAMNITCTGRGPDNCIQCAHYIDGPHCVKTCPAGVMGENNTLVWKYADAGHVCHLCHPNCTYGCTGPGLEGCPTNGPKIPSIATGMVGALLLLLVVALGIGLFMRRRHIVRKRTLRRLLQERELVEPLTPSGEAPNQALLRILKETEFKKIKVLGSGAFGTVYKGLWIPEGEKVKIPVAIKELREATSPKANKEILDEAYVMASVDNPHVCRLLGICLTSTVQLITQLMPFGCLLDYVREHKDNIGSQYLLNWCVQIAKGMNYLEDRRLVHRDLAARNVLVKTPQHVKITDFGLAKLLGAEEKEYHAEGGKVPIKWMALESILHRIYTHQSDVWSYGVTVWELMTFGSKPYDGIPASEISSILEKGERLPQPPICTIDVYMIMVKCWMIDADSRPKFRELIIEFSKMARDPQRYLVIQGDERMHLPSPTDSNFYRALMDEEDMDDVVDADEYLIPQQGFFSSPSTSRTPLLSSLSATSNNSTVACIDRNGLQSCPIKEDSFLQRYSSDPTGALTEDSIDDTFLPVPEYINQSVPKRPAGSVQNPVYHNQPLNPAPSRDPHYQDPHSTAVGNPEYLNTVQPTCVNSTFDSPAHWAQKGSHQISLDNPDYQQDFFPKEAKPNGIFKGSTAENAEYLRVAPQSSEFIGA
- experimental-details: Inhibition of epidermal growth factor receptor (EGFr) using ATP substrate
Could you please report measured Ki for the items listed next?
// units = nM; emit number, no label

Kindly note the recorded Ki for N[C@H](Cc1c([Se][Se]c2[nH]c3ccccc3c2C[C@H](N)C(=O)NCc2ccccc2)[nH]c2ccccc12)C(=O)NCc1ccccc1 (stereo in doubt; 34) , which is 2700

The recorded Ki for entry NC(Cc1c(SSc2[nH]c3ccccc3c2CC(N)C(=O)NCc2ccccc2)[nH]c2ccccc12)C(=O)NCc1ccccc1 (centres undefined) equals 19400

Per the records, this molecule ( CNC(=O)c1c([Se][Se]c2c(C(=O)NC)c3ccccc3n2C)n(C)c2ccccc12 ) has Ki equal to 3100

Sample CNC(=O)c1c(SSc2c(C(=O)NC)c3ccccc3n2C)n(C)c2ccccc12 ; Ki observed: 2300
